System: Tov-21-G
Assay: Primary qHTS to identify gynecologic anti-cancer compounds using libraries of approved drugs and bioactive compounds (AID 1345084); also: nearly all actives have a fitted effect of over 55% in size
Details: Gynecologic cancer cell panel viability, ATPlite luminescence, 48 h; series mostly up to 57.5 µM
Records with an inconclusive call do not appear. Active and inactive are the calls of the source. Calls follow the shape of the dose curve; as a rule, active = well fitted cell-killing curve with a large enough effect; inconclusive = small, poorly fitted or top-dose-only effect, or effect the other way; inactive = flat fitted curve, though single readings scatter.
Use one of these outcomes when replying: YES (active), NO (inactive)

Q: // outcome(item) with item = Cn1nc(C(C)(C)C)cc1C(=O)N[C@@H](Cc1cccc(Cl)c1)C(=O)NCC#N
A: NO

Q: // outcome(item) with item = COc1ccc(N2CCN(C(=O)c3cc4c(s3)-c3ccccc3S(=O)(=O)C4)CC2)cc1
A: NO

Q: // outcome(item) with item = C=C1CC[C@@H](O)[C@]2(C)CC[C@H]3C(=C)C(=O)O[C@@H]3[C@@H]12
A: NO

Q: // outcome(item) with item = COC1CC(O[C@H]2CC[C@]3(C)C4CC[C@@]5(C)C(=O)[C@]4(CC[C@@H]3C2)CC[C@@H]5C2=CC(=O)OC2)OC(C)C1OC1OC(COC2OC(CO)C(O)C(O)C2O)C(O)C(O)C1O (stereo partly specified)
A: YES

Q: // outcome(item) with item = O=C(Nc1nc2ccc([N+](=O)[O-])cc2s1)C1CCCCC1
A: NO

Q: // outcome(item) with item = OC1CCC(Nc2nc(-c3ccccc3)nc3[nH]ccc23)CC1 (stereo unspecified)
A: NO

Q: // outcome(item) with item = CCc1ccc(-c2nc(CSCC(=O)NCCc3ccccc3)c(C)o2)cc1
A: NO
